Conditions: in p-xylene, 317.38 K
Experimental Readout: solubility (mole fraction)

- Test Smiles: "CP(=O)(c1ccccc1)c1ccccc1"
  Experimental Readout: "solubility (mole fraction)"
  Recorded Result: 0.0442

###

Conditions: in o-xylene, 308.23 K

- Test Smiles: "CP(=O)(c1ccccc1)c1ccccc1"
  solubility (mole fraction): 0.0454

###

Conditions: in p-xylene, 298.19 K

- Test Smiles: "CP(=O)(c1ccccc1)c1ccccc1"
  solubility (mole fraction): 0.0175

###

Details: in benzene, 303.21 K

- Test Smiles: "CP(=O)(c1ccccc1)c1ccccc1"
  solubility (mole fraction): 0.0875

###

Details: in p-xylene, 320.55 K

- Test Smiles: "CP(=O)(c1ccccc1)c1ccccc1"
  solubility (mole fraction): 0.0539

###

Details: in ethylbenzene, 303.12 K

- Test Smiles: "CP(=O)(c1ccccc1)c1ccccc1"
  solubility (mole fraction): 0.0304

###

Conditions: in ethyl acetate, 326.93 K

- Test Smiles: "CP(=O)(c1ccccc1)c1ccccc1"
  solubility (mole fraction): 0.15

###

Conditions: in o-xylene, 303.11 K

- Test Smiles: "CP(=O)(c1ccccc1)c1ccccc1"
  solubility (mole fraction): 0.0406

###

Conditions: in m-xylene, 317.53 K
Experimental Readout: solubility (mole fraction)

- Test Smiles: "CP(=O)(c1ccccc1)c1ccccc1"
  Recorded Result: 0.0398

###

Conditions: in o-xylene, 293.35 K
Experimental Readout: solubility (mole fraction)

- Test Smiles: "CP(=O)(c1ccccc1)c1ccccc1"
  Recorded Result: 0.0281

###

Conditions: in m-xylene, 293.75 K
Experimental Readout: solubility (mole fraction)

- Test Smiles: "CP(=O)(c1ccccc1)c1ccccc1"
  Recorded Result: 0.0129

###

Conditions: in benzene, 308.12 K

- Test Smiles: "CP(=O)(c1ccccc1)c1ccccc1"
  solubility (mole fraction): 0.102

###

Settings: in toluene, 303.08 K

- Test Smiles: "CP(=O)(c1ccccc1)c1ccccc1"
  solubility (mole fraction): 0.0386

###

Conditions: in benzene, 288.52 K
Experimental Readout: solubility (mole fraction)

- Test Smiles: "CP(=O)(c1ccccc1)c1ccccc1"
  Experimental Readout: "solubility (mole fraction)"
  Recorded Result: 0.0439

###

Details: in benzene, 312.55 K
Experimental Readout: solubility (mole fraction)

- Test Smiles: "CP(=O)(c1ccccc1)c1ccccc1"
  Recorded Result: 0.123

###

Conditions: in p-xylene, 303.31 K

- Test Smiles: "CP(=O)(c1ccccc1)c1ccccc1"
  solubility (mole fraction): 0.0219

###

Settings: in toluene, 312.12 K

- Test Smiles: "CP(=O)(c1ccccc1)c1ccccc1"
  solubility (mole fraction): 0.065

###

Conditions: in ethyl acetate, 293.25 K

- Test Smiles: "CP(=O)(c1ccccc1)c1ccccc1"
  solubility (mole fraction): 0.0415

###

Details: in m-xylene, 313 K
Experimental Readout: solubility (mole fraction)

- Test Smiles: "CP(=O)(c1ccccc1)c1ccccc1"
  Recorded Result: 0.0332

###

Settings: in ethyl acetate, 322.14 K

- Test Smiles: "CP(=O)(c1ccccc1)c1ccccc1"
  solubility (mole fraction): 0.128

###

Settings: in p-xylene, 308.42 K
Experimental Readout: solubility (mole fraction)

- Test Smiles: "CP(=O)(c1ccccc1)c1ccccc1"
  Experimental Readout: "solubility (mole fraction)"
  Recorded Result: 0.03

###

Conditions: in ethylbenzene, 326.39 K

- Test Smiles: "CP(=O)(c1ccccc1)c1ccccc1"
  solubility (mole fraction): 0.0876

###

Conditions: in ethyl acetate, 302.88 K
Experimental Readout: solubility (mole fraction)

- Test Smiles: "CP(=O)(c1ccccc1)c1ccccc1"
  Experimental Readout: "solubility (mole fraction)"
  Recorded Result: 0.0618

###

Conditions: in ethylbenzene, 312.8 K

- Test Smiles: "CP(=O)(c1ccccc1)c1ccccc1"
  solubility (mole fraction): 0.0464
